tested on: Streptococci; test: Minimum inhibitory concentration, microdilution broth method, streptococci; type: cell-based; conditions: S. pneumo GC 1894; Mueller-Hinton broth with 5% horse blood, 18-22 hours at 35° C.
Each entry below carries its recorded MIC.
attribute-measured: MIC (µg/mL)

1. O=C1O/C(=C\c2cccc(-c3ccc(Cl)c(Cl)c3)c2)C(O)=C1c1ccc(Cl)c(Cl)c1 [Example 135] : 1
2. CCCc1ccc(-c2ccc(C3=C(O)/C(=C/c4cc(F)cc(C(F)(F)F)c4)OC3=O)cc2)cc1 [Example 111] : 0.25
3. COc1ccc(C2=C(O)/C(=C/c3ccc4ccccc4c3)OC2=O)cc1 [Example 7] : 2

###

tested on: Trichostrongylus columbriformis; assay: In vivo efficacy against T. colubriformis in infected gerbils; settings: gerbils infected with T. colubriformis; single oral dose of 50 mg/kg by gavage; worm counts four days post-treatment; % mortality as compared to negative control
Examples of molecules with documented Mortality follow.
attribute-measured: Mortality (%)

1. O=C1O/C(=C\c2ccc(-c3ccccc3)cc2)C(O)=C1c1ccc(Cl)c(Cl)c1 [R=H; R1=3,4-diCl—C6H3; R2=4-biphenyl] : 23.00
2. O=C1OC(=Cc2ccc(Cl)c(Cl)c2)C(O)=C1c1ccc(Cl)cc1 (mixture of isomers) [R=H; R1=4-Cl—C6H4**; R2=3,4-diCl—C6H4] : 58.0
3. O=C1OC(=Cc2cnccc2-c2ccc(Cl)cc2)C(O)=C1c1ccc(OC(F)(F)F)cc1 (mixture of isomers) : 84.60
4. N#Cc1ccc(-c2ccc(C=C3OC(=O)C(c4ccc(C(F)(F)F)cc4)=C3O)cc2)cc1 (mixture of isomers) : 91.50
5. O=C1OC(=Cc2ccc3ccccc3c2)C(O)=C1c1ccc(Cl)cc1 [R=H; R1=4-Cl—C6H4; R2=2-naphthyl] : 52.80
6. N#Cc1cccc(C2=C(O)C(=Cc3ccc(Cl)cc3)OC2=O)c1 (mixture of isomers) [R=H; R1=3-CN—C6H4**; R2=4-Cl—C6H4] : 0.00
7. O=C1OC(=Cc2ccc(F)cc2)C(O)=C1c1ccc(F)cc1 (mixture of isomers) [R=H; R1=4-F—C6H4**; R2=4-F—C6H4] : 0.00
8. N#Cc1ccc(C2=C(O)C(=Cc3ccc(-c4ccc(C#N)cc4)cc3)OC2=O)cc1 [R=H; R1=4-CN—C6H4*; R2=4-(4′-CN-biphenyl)] : 88.07
9. N#Cc1ccc(C=C2OC(=O)C(c3ccc(OC(F)(F)F)cc3)=C2O)cc1 (mixture of isomers) [R=H; R1=4-OCF3—C6H4**; R2=4-CN—C6H4] : 88.90
10. COc1cc(/C=C2\OC(=O)C(c3cccc(Cl)c3)=C2O)ccc1-c1ccccc1C(F)(F)F : 29.50
11. COC1=C(c2ccc(Cl)cc2)C(=O)OC1=Cc1ccc(C#N)cc1 (mixture of isomers) [R=CH3; R1=4-Cl—C6H4**; R2=4-CN—C6H4] : 0.00
12. N#Cc1ccc(C=C2OC(=O)C(c3ccc(-c4ccc(Cl)cc4)cc3)=C2O)cc1 (mixture of isomers) : 0.00
13. O=C1OC(=Cc2ccc(Cl)cc2)C(O)=C1c1ccc(OC(F)(F)F)cc1 (mixture of isomers) [R=H; R1=4-OCF3—C6H4**; R2=4-Cl—C6H4] : 100.0
14. O=C1O/C(=C\c2ccc(Cl)cc2)C(O)=C1c1cccc(C(F)(F)F)c1 [R=H; R1=3-CF3—C6H4; R2=4-Cl—C6H4] : 21.60
